Recorded values, source patent US20240299385A1.

target-system: human GPR17 receptor (Homo sapiens, UniProt Q13304)
Sequence (Q13304 whole entry): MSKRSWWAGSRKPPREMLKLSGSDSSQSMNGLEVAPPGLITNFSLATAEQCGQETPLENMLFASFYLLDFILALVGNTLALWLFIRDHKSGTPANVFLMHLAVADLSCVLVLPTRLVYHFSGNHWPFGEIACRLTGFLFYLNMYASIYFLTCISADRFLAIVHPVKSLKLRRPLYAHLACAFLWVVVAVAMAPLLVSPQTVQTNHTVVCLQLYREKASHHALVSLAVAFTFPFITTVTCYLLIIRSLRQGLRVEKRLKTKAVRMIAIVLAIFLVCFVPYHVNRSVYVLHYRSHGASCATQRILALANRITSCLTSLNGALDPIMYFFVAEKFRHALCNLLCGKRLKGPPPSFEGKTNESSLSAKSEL
assay-comment: Calcium mobilization functional assay (Fluo-8, FLIPR TETRA) in HEK-293 hGPR17 (Gα-q assay)
settings: antagonism of MDL29,951 (~EC80) induced Ca2+ signal; cell line (HEK-293 hGPR17 or HEK-293 Suchi5 hGPR17) not given
endpoint: IC50

{"columns": ["compound", "IC50"],
 "data": [
  ["N#Cc1cc(F)c(NS(=O)(=O)c2c[nH]c(-c3ccccc3)c2)cc1Cl [Cpd 333]", "< 0.5 µM"]
]}

Task: GET /values?readout=IC50&item= COc1cc(-c2cc(S(=O)(=O)Nc3ccc(C#N)cc3F)c[nH]2)ccc1F [Cpd 259]
Output: 0.5 to 5 µM

Task: # repeat for N#Cc1ccccc1-c1cc(S(=O)(=O)Nc2cc(F)c(C(F)(F)F)cc2F)c[nH]1 [Cpd 355]
Output: 0.5 to 5 µM

====

Recorded pIC50 values for a group of compounds are listed next.
target-system: human GPR17 receptor (Homo sapiens, UniProt Q13304)
Construct: host or cells: HEK-293
assay-comment: Calcium mobilization functional assay (Fluo-8, FLIPR TETRA) in HEK-293 hGPR17 (Gα-q assay)
Assay type: cell-based
settings: antagonism of MDL29,951 (~EC80) induced Ca2+ signal; cell line (HEK-293 hGPR17 or HEK-293 Suchi5 hGPR17) not given
pIC50: −log10 of the molar value.

{"columns": ["compound", "value-observed"],
 "data": [
  ["COc1c(F)cccc1-c1cc(S(=O)(=O)Nc2cc(F)c(OC(F)F)cc2F)c[nH]1 [Cpd 531]", "> 6.30"],
  ["Cc1cccc(-c2cc(S(=O)(=O)Nc3cc(F)c(C(F)(F)F)cc3F)c[nH]2)c1F [Cpd 319]", "5.30 to 6.30"],
  ["O=S(=O)(Nc1cc(F)c(OC(F)F)cc1F)c1c[nH]c(-c2ccccn2)c1 [Cpd 205]", "> 6.30"]
]}

Task: GET /values?readout=pIC50&item= COc1nc(Cl)c(F)cc1NS(=O)(=O)c1c[nH]cc1-c1cccc(F)c1 [Cpd 428]
Output: 5.30 to 6.30

Task: # repeat for O=S(=O)(Nc1cc(F)c(C(F)(F)F)cc1F)c1c[nH]c(-c2cc(F)ccc2F)c1 [Cpd 393]
Output: > 6.30

Task: # repeat for O=S(=O)(Nc1cc(F)c(C(F)(F)F)cc1F)c1c[nH]c(-c2ccc3cccnn23)c1 [Cpd 567]
Output: > 6.30

Task: # repeat for O=S(=O)(Nc1cc(F)c(F)cc1F)c1c[nH]c(-c2ccccc2)c1 [Cpd 137]
Output: 5.30 to 6.30

Task: # repeat for Cc1ccc(-c2cc(S(=O)(=O)Nc3ccc(C#N)cc3F)c[nH]2)cc1F [Cpd 264]
Output: 5.30 to 6.30

Task: # repeat for O=S(=O)(Nc1cc(F)c(C(F)(F)F)cc1F)c1c[nH]c(-c2cccn3ccnc23)c1 [Cpd 565]
Output: 5.30 to 6.30

Task: # repeat for Cc1cc(F)c(NS(=O)(=O)c2c[nH]c(-c3ccccn3)c2)cc1F [Cpd 173]
Output: > 6.30

Task: # repeat for Cc1cc(F)cc(-c2cc(S(=O)(=O)Nc3ccc(C#N)cc3F)c[nH]2)c1 [Cpd 288]
Output: 5.30 to 6.30

Task: # repeat for N#Cc1ccc(NS(=O)(=O)c2c[nH]c(-c3cccc(C(F)(F)F)n3)c2)c(F)c1 [Cpd 373]
Output: 5.30 to 6.30

Task: # repeat for N#Cc1cc(F)c(NS(=O)(=O)c2c[nH]cc2Cc2cc(F)cc(Cl)c2)cc1F [Cpd 605]
Output: 5.30 to 6.30

Task: # repeat for O=S(=O)(Nc1cc(F)c(C(F)(F)F)cc1F)c1c[nH]c(-c2cc(Cl)ccn2)c1 [Cpd 214]
Output: 5.30 to 6.30

Task: # repeat for O=S(=O)(Nc1cc(F)c(C(F)(F)F)cc1F)c1c[nH]c(-c2ccc(C(F)(F)F)cn2)c1 [Cpd 369]
Output: 4.30 to 5.30

Task: # repeat for O=S(=O)(Nc1cc(F)c(Br)cc1F)c1c[nH]c(-c2cccc(Br)n2)c1 [Cpd 528]
Output: > 6.30

Task: # repeat for Cc1ccccc1-c1cc(S(=O)(=O)Nc2ccc(C#N)cc2F)c[nH]1 [Cpd 015]
Output: > 6.30

Task: # repeat for Cn1nccc1-c1cc(S(=O)(=O)Nc2ccc(C#N)cc2F)c[nH]1 [Cpd 078]
Output: 4.30 to 5.30
